molecular target: His6 tagged human recombinant FABP4 (Homo sapiens, UniProt P15090); construct: purchased Cayman Chemicals 10009549; assay: FABP4 TR-FRET assay: displacement of fluorescent fatty acid BODIPY FL C12; conditions: inhibition of BODIPY FL C12 binding to His6-FABP4; 1.2 μL of 1.085 mM compound in DMSO per well; triplicates, mean percent inhibition
Sequence (P15090 whole entry): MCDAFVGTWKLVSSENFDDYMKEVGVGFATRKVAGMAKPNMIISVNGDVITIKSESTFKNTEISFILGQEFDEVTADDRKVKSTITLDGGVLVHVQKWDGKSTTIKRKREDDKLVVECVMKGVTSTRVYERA
Definition: the class of an entry is the range in bottom bin (below 40%), middle bin (40% to below 60%), top bin (60% or more) that contains its inhibition at 1085 µM (stock).

See these solved cases before continuing.
COc1cccc(CCc2ccc3nc(N(C)CC(=O)O)cc(-c4ccccc4)c3c2)c1: top bin
CCCCc1ccc2nc(N(C)CC(=O)O)cc(-c3ccncc3)c2c1: bottom bin
CCc1ccc2nc(OCC(=O)O)cc(-c3ccccc3)c2c1: bottom bin
CCCCc1ccc2nc(N(C)CC(C)C(=O)O)cc(-c3cccc(C#N)c3)c2c1 (centres unmarked): bottom bin

Note: place this compound into its band. Item: "CCCCCCc1ccc2nc(N(CCC)CC(=O)O)cc(-c3ccc(F)cc3)c2c1"
middle bin

Note: place this compound into its band. Item: "CN(CC(=O)O)c1cc(-c2ccccc2)c2cc(CCc3ccccc3Cl)ccc2n1"
bottom bin

Note: place this compound into its band. Item: "CCCCCCc1ccc2nc(N(C)CC(=O)O)cc(N3CCC(F)(F)CC3)c2c1"
middle bin

Note: place this compound into its band. Item: "CN(CC(=O)O)c1cc(-c2ccccc2)c2cc(Cl)ccc2n1"
top bin

Note: place this compound into its band. Item: CCCCCCc1ccc2nc(N3CCC(C)(C(=O)O)C3)cc(-c3ccccc3)c2c1 (centres unmarked)
bottom bin

All figures here come from patent US20230183179A1.
